Reference for the values: patent US11986532B2

- Assayed System: BCL6 (Homo sapiens, UniProt P41182)
- Construct: endogenous in cells; host or cells: T47D breast cancer epithelial cells
- Test Name: Immunofluorescence protocol for high content imaging of BCL6 (degradation) in T47D cells, 3 days compound treatment
- Format: cell-based
- Condition: T47D cells, 3 days compound treatment, read-out: Mean Dmax (%)** category
Dmax reference
Reported Metric: Dmax

- Compound: "CNC(=O)COc1cc2cc(Nc3nc(N4CCC(O[C@H]5C[C@H](N6CC[C@H](c7ccc8c(c7)C(=O)N(C7CCC(=O)NC7=O)C8=O)[C@H](F)C6)C5)CC4)ncc3Cl)ccc2n(C(C)C)c1=O (mixture of isomers)"
  Reported Metric: "Dmax"
  Reported: "50 to 70%"
- Compound: "CNC(=O)COc1cc2cc(Nc3nc(N4CCC(O[C@H]5C[C@H](N6CCN(c7ccc8c(c7C)C(=O)N(C7CCC(=O)NC7=O)C8=O)CC6)C5)CC4)ncc3Cl)ccc2n(C(C)C)c1=O (some centres unmarked)"
  Reported Metric: "Dmax"
  Reported: "≥ 70%"
- Compound: "CNC(=O)COc1cc2cc(Nc3nc(N4CCN(C(C)(C)C5CCN(c6ccc7c(c6OC)CN(C6CCC(=O)NC6=O)C7=O)CC5)CC4)ncc3Cl)ccc2n(C(C)C)c1=O (centres unmarked)"
  Reported Metric: "Dmax"
  Reported: "< 50%"
- Compound: "CNC(=O)COc1cc2cc(Nc3nc(N4CCC(CN5CCC6(CC5)CN(c5ccc7c(c5)C(=O)N(C5CCC(=O)NC5=O)C7=O)C6=O)CC4)ncc3Cl)ccc2n(C(C)C)c1=O (centres unmarked)"
  Reported Metric: "Dmax"
  Reported: "≥ 70%"
- Compound: "CNC(=O)COc1cc2cc(Nc3nc(N4CCC(O[C@H]5C[C@H](N6CCN(c7ccc8c(n7)C(C)N(C7CCC(=O)NC7=O)C8=O)[C@H](C)C6)C5)CC4)ncc3Cl)ccc2n(C(C)C)c1=O (stereo in doubt)"
  Reported Metric: "Dmax"
  Reported: "≥ 70%"
